measured on: human Thyroid Receptor alpha (THRa1), THRA (gene 7067) (UniProt P10827)
Sequence (P10827 whole entry, looked up): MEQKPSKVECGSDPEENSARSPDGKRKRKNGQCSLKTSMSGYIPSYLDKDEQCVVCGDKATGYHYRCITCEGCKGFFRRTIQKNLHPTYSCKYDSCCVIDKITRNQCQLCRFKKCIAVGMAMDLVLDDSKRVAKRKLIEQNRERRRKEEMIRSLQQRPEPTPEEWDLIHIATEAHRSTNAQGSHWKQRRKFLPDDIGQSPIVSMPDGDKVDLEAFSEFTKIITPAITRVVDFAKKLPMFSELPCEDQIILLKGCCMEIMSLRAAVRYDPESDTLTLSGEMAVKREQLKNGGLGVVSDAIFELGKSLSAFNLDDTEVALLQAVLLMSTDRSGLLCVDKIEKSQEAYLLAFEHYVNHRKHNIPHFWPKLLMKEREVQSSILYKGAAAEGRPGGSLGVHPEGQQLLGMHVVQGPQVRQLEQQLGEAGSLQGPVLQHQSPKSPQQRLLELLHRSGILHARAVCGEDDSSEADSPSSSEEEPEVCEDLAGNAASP
run description: ATG_THRa1_TRANS: Attagene TRANS-FACTORIAL HepG2 Assay for human Thyroid Receptor alpha (THRa1) (AID 2283014)
Procedure: ATG_TRANS is a cell-based, multiplexed-readout assay that uses HepG2, a human liver cell line, with measurements taken at 24 hours after chemical dosing in a 24-well plate.ATG_THRa1_TRANS is one of 30 assay component(s) measured or calculated from the ATG_TRANS assay. […] This assay endpoint, ATG_THRa1_TRANS, was analyzed in the positive analysis fitting direction relative to DMSO as the negative control and baseline of activity. […]
Inconclusive results are not listed. Calls of active or inactive are those of the source. Rule for the calls: active = hit-call score of the fitted dose curve at least 0.9, where 1 is the maximum; inconclusive = response in the unintended direction; inactive = score below 0.9.
Classes used: TRUE = active, FALSE = inactive

>  <query smiles>
Cc1cc(O)c2c(c1)C(=O)c1cc(O)cc(O)c1C2=O

>  <assigned label>
TRUE

$$$$
>  <query smiles>
CC(=O)c1cccnc1

>  <assigned label>
FALSE

$$$$
>  <query smiles>
O=c1cc[nH]cc1

>  <assigned label>
FALSE

$$$$
>  <query smiles>
CCCCCCCCCCCCCC(=O)OCC

>  <assigned label>
FALSE

$$$$
>  <query smiles>
NC(N)=S

>  <assigned label>
FALSE

$$$$
>  <query smiles>
S=c1[nH][nH]c(=S)s1

>  <assigned label>
FALSE

$$$$
>  <query smiles>
CCCCCCCCCCOC(=O)c1ccccc1C(=O)OCCCCCCCC

>  <assigned label>
FALSE

$$$$
